tgt: cFMS (Homo sapiens, UniProt P07333)
Construct: THP-1 cells (human acute monocytic leukemia cell line) were serum-starved for 4 hours; endogenous in cells
Sequence (P07333 20-972): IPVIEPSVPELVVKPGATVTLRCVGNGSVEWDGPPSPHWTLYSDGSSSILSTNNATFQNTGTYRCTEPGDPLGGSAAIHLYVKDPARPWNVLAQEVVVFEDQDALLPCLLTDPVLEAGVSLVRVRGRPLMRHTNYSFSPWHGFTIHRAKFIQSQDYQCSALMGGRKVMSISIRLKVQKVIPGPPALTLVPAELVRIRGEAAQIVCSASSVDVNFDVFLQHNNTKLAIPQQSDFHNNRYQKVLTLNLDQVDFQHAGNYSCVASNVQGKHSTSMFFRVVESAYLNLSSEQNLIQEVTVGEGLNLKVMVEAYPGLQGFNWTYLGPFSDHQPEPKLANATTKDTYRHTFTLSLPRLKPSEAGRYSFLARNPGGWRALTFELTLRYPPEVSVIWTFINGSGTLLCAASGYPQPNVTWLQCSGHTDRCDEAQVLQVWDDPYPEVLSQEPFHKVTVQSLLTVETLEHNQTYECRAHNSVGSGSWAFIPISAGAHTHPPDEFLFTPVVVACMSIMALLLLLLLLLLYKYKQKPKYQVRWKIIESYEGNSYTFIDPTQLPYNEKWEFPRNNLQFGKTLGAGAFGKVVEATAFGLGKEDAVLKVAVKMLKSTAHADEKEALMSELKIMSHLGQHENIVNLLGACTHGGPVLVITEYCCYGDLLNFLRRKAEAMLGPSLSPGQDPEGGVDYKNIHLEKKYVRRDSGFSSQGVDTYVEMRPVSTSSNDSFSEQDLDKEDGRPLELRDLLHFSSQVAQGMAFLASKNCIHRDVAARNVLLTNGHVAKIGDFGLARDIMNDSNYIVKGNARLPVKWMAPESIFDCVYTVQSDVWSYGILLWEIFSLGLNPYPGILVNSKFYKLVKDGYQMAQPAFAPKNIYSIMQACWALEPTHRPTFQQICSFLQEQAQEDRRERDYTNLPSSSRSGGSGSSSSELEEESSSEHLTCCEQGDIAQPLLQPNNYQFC
testSummary: cFMS Cell-Based Assay (Example C)
conditionsUsed: averaged IC50; phospho-cFMS in THP-1 cells stimulated with 250 ng/mL recombinant human MCSF; read-out: cFMS Cell ELISA IC50
Structures can show the parent of a compound that is named as a salt.
resultType: pIC50
Lab note: report pIC50 as minus log10 of the concentration in molar units, number only.

Q. Returns the measured pIC50 for the input molecule. Input: Cc1cccc(Cn2nc(C)c3c(NC(=O)c4cnc5cc(OCCN6CCOCC6)ccn45)cccc32)n1
A. 7.71

Q. Next up: CCN1CCN(CCOc2ccn3c(C(=O)Nc4cccc5c4c(C)nn5Cc4cccc(C(C)C)n4)cnc3c2)CC1
A. 7.56

Q. How about this molecule: CN1CCN(CCOc2ccn3c(C(=O)Nc4cccc5c4cnn5Cc4ccc5[nH]cnc5c4)cnc3c2)CC1 [Example 108, dihydrochloride]
A. 7.18

Q. Next entry: Cc1ccc(Cn2nc(C)c3c(NC(=O)c4cnc5ccccn45)cccc32)cn1
A. 6.87

Q. Next molecule: O=C(Nc1cccc2c1cnn2Cc1ccccc1)c1cnc2cc(Br)ccn12
A. 7.23

Q. Check CCC(C)c1cccc(Cn2nc(C)c3c(NC(=O)c4cnc5cc(OCCN6CCN(C)[C@@H](C)C6)ccn45)cccc32)n1 (stereo partly shown) too.
A. 7.28

Q. Please answer likewise for Cc1ncc(Cn2ncc3c(NC(=O)c4cnc5cc(OCCN6CCN(C)CC6)ccn45)cccc32)s1
A. 8.66

Q. Next: O=C(Nc1cccc2c1cnn2Cc1ccccc1)c1cnc2ccccn12
A. 7.56

Q. Okay, and COCCOc1ccn2c(C(=O)Nc3cccc4c3cnn4Cc3cccc(C(=O)OC)c3)cnc2c1 ?
A. 6.07

Q. Can you check COCCOc1ccn2c(C(=O)Nc3cccc4c3cnn4CC3CN(C(=O)OC(C)(C)C)CCO3)cnc2c1 (stereo not shown) next?
A. 6.42

Q. Same question, Cc1nn(Cc2cc(C)n(C(C)C)n2)c2cccc(NC(=O)c3cnc4cc(OCCN5CCN(C)CC5)ccn34)c12 this time
A. 8.00

Q. And then Cc1nn(Cc2cccc(C3CC3)n2)c2cccc(NC(=O)c3cnc4cc(OCCN5CCOCC5)ccn34)c12 , what is it?
A. 7.99

Q. Then this molecule: Cc1nn(Cc2cccc(C3CC3)n2)c2cccc(NC(=O)c3cnc4cc(OCCN5CCN(C)C(C)(C)C5)ccn34)c12
A. 8.03

====

Would you mind telling me the reported IC50 of each entry?
tgt: cFMS (Homo sapiens, UniProt P07333)
Construct: THP-1 cells (human acute monocytic leukemia cell line) were serum-starved for 4 hours; endogenous in cells
testSummary: cFMS Cell-Based Assay (Example C)
conditionsUsed: averaged IC50; phospho-cFMS in THP-1 cells stimulated with 250 ng/mL recombinant human MCSF; read-out: cFMS Cell ELISA IC50
Counter-ions that a name gives are not always drawn.
Please provide the amount together with its unit, number first.

Q. Need IC50, item Cc1cccc(Cn2nc(C)c3c(NC(=O)c4cnc5cc(OCCN6CCNCC6)ccn45)cccc32)n1
A. 9.7 nM

Q. And Cc1nn(Cc2cccc(C3CC3)n2)c2cccc(NC(=O)c3cnc4cc(OCCN5CCN(C(C)C)CC5)ccn34)c12 ?
A. 13.9 nM

Q. Same question for COc1ccn2c(C(=O)Nc3cccc4c3cnn4Cc3ccccc3)cnc2c1 please.
A. 12.5 nM

Q. Could you do the same for CCc1cccc(Cn2nc(C)c3c(NC(=O)c4cnc5cc(OCCN6CCN(C)[C@@H](C)C6)ccn45)cccc32)n1 , please?
A. 12 nM

Q. Also, Cc1nn(Cc2cccc(C(C)C)n2)c2cccc(NC(=O)c3cnc4cc(OCCN5CCN(C)CC5)ccn34)c12 please.
A. 10.2 nM

Q. Another compound: Cc1cccc(Cn2nc(C)c3c(NC(=O)c4cnc5cc(C6=CCNCC6)ccn45)cccc32)n1 [Example 51, hydrochloride]
A. 9.9 nM

Q. Also, CCN1CCN(CCOc2ccn3c(C(=O)Nc4cccc5c4c(C)nn5Cc4cccc(C5CC5)n4)cnc3c2)CC1 please.
A. 11 nM

Q. Same question, O=C(Nc1cccc2c1cnn2Cc1ccccc1)c1cnc2cc(OCCN3CCOCC3)ccn12 this time
A. 9.8 nM

Q. Now consider COCCN1CCN(CCOc2ccn3c(C(=O)Nc4cccc5c4c(C)nn5Cc4cccc(C5CC5)n4)cnc3c2)CC1 .
A. 10.8 nM

Q. Cool, now Cc1nn(Cc2cccc(C(C)C)n2)c2cccc(NC(=O)c3cnc4cc(OCCN5CCOCC5)ccn34)c12
A. 16.1 nM

Q. Now the same for COCCOc1ccn2c(C(=O)Nc3cccc4c3c(C)nn4Cc3ccccc3)cnc2c1
A. 8.2 nM

Q. Same thing, different compound: CCOc1cccc(Cn2nc(C)c3c(NC(=O)c4cnc5cc(OCCN6CCN(C)CC6)ccn45)cccc32)n1
A. 7 nM

====

Provide the reported IC50 of each item.
tgt: c-KIT (Homo sapiens, UniProt P10721)
Construct: M-07e cells (human acute megakaryoblastic leukemia cell line) were serum-starved for 4 hours; endogenous in cells
Sequence (P10721 26-976): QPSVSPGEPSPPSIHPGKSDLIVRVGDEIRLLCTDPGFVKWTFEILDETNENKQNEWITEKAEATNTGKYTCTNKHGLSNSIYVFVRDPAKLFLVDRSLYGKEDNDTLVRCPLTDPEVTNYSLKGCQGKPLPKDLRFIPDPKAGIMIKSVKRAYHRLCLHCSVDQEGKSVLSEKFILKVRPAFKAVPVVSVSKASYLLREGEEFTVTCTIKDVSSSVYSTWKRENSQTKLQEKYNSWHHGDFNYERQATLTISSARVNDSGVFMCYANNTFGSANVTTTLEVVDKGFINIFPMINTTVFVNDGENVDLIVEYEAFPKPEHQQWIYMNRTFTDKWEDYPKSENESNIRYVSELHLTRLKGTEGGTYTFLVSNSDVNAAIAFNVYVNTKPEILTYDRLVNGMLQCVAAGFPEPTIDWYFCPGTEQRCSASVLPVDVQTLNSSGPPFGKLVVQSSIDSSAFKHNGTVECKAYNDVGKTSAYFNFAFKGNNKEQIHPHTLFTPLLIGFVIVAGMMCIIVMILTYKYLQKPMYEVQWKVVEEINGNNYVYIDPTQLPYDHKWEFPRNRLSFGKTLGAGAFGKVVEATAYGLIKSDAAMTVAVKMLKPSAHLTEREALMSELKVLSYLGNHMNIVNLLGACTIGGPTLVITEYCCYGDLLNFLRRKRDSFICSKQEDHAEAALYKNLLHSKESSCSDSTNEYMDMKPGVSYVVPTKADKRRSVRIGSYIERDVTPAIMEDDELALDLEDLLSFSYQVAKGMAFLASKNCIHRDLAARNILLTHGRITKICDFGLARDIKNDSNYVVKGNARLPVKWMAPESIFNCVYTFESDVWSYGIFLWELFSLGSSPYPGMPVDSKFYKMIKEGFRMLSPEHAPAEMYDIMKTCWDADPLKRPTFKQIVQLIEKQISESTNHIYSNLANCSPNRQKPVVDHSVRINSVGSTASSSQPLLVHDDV
testSummary: c-KIT Cell-Based Assay (Example D)
conditionsUsed: averaged IC50; phospho-c-KIT in M-07e cells stimulated with 150 ng/ml recombinant human SCF; read-out: cKIT Cell ELISA IC50
Where a name gives a salt, the structure may show the parent alone.
Number in nM, nothing else.

Q. Find IC50 (c-KIT (Homo sapiens, UniProt P10721)) for the entry Cc1cccc(Cn2nc(C)c3c(NC(=O)c4cnc5cc(C6CCNCC6)ccn45)cccc32)n1 [Example 52, tri-hydrochloride]
A. 5000

Q. Next compound up: Cc1nc(Cn2nc(C)c3c(NC(=O)c4cnc5cc(OCCN6CCN(C)CC6)ccn45)cccc32)cs1
A. 510

Q. Ok, now CN1CCN(CCOc2ccn3c(C(=O)Nc4cccc5c4cnn5Cc4cn(C)cn4)cnc3c2)CC1 [Example 106, dihydrochloride]
A. 748

Q. Same thing, different compound: CN1CCN(CCOc2ccn3c(C(=O)Nc4cccc5c4cnn5Cc4cccc(C#N)c4)cnc3c2)CC1
A. 11.4

Q. Next record, please: CN1CCN(CCOc2ccn3c(C(=O)Nc4cccc5c4cnn5CCc4ccccn4)cnc3c2)CC1
A. 123

Q. Also check COCCOc1ccn2c(C(=O)Nc3cccc4c3cnn4Cc3ccncc3)cnc2c1
A. 451

Q. Repeat for the following compound: Cc1cccc(Cn2nc(C)c3c(NC(=O)c4cnc5cc(OCCN6CCNCC6)ccn45)cccc32)n1
A. 1010

Q. Same lookup for COCCOc1ccn2c(C(=O)Nc3cccc4c3cnn4Cc3cccc(C(N)=O)c3)cnc2c1 , please.
A. 94.8

Q. Follow-up entry: COCCOc1ccn2c(C(=O)Nc3c(Cl)cc(Cl)c4c3cnn4Cc3ccccc3)cnc2c1
A. 54.1

Q. // same read-out, input: Cc1nn(Cc2cccc(C3CC3)n2)c2ccc(F)c(NC(=O)c3cnc4cc(OCCN5CCN(C)[C@@H](C)C5)ccn34)c12
A. 58.9

Q. Request: COCCOc1ccn2c(C(=O)Nc3c(Cl)ccc4c3cnn4Cc3ccccc3)cnc2c1
A. 3.1

====

tgt: PDGFR beta (Homo sapiens)
Construct: endogenous in cells; host or cells: HS27 human fibroblast cell line
Sequence (P09619 33-1106): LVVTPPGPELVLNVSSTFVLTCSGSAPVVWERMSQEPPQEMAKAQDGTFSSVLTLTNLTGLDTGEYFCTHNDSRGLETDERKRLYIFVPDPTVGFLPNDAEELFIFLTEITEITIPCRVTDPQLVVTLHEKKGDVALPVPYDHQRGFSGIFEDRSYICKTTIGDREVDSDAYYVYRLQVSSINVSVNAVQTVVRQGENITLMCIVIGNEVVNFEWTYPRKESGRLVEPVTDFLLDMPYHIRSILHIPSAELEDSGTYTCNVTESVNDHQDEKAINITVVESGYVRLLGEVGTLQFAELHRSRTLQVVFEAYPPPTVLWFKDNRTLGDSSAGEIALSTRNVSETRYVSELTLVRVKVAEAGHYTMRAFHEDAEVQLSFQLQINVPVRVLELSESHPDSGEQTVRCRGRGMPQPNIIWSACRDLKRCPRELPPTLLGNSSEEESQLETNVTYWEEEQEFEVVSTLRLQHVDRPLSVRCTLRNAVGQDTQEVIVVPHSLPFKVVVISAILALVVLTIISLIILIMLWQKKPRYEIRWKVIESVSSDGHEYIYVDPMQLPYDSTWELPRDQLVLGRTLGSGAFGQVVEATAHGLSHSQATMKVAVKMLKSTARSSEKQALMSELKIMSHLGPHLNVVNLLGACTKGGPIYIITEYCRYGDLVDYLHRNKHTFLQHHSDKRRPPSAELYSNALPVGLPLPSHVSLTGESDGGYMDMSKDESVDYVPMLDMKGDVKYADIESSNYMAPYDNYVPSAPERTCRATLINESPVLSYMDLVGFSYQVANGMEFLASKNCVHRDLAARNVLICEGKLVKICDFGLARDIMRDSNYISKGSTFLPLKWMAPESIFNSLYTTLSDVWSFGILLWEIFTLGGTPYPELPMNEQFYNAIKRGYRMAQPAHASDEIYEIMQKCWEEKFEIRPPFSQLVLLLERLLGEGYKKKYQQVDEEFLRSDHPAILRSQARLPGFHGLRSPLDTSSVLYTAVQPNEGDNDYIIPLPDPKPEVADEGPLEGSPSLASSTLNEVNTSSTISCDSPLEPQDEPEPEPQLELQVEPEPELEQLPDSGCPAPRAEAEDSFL
testSummary: Phospho PDGFR LICOR Cell Assay (Example B)
Assay type: cell-based
conditionsUsed: averaged IC50; PDGFR beta phosphorylation in HS27 human fibroblast cell line, PDGF-BB stimulation 10 minutes, normalized to total ERK
Protocol: Compounds were screened for inhibition of PDGFR beta phosphorylation in the HS27 human fibroblast cell line. Cells were seeded into a 96 well tissue culture plate, then incubated overnight in a 37° C./5% CO2 incubator. The following day, cells were treated for one hour with test compound dilutions. […] Cells were then washed with PBS and analyzed for fluorescence at both wavelengths using the Odyssey Infrared Imaging System (LI-COR Biosciences). […]
Structures can show the parent of a compound that is named as a salt.
Label 1.0 when IC50 < 0.04 µM; otherwise 0.0.

Q. Given the entry N#Cc1ccc2ncc(C(=O)Nc3cccc4c3cnn4Cc3ccccc3)n2c1 [Example 154] , would its reported IC50 be below 0.04 µM?
A. 0.0

Q. Also, COCCOc1ccn2c(C(=O)Nc3cccc4c3cnn4CC3CCN(C(=O)OC(C)(C)C)CC3)cnc2c1 [Example 122] please.
A. 0.0

Q. # repeat for Cc1nn(Cc2cccc(C3CC3)n2)c2cccc(NC(=O)c3cnc4cc(OCCN5CCOCC5)ccn34)c12 [Example 18]
A. 0.0

Q. What do we get for CC(O)c1ccn2c(C(=O)Nc3cccc4c3cnn4Cc3ccccc3)cnc2c1 (centres unmarked) [Example 147] ?
A. 0.0

Q. Try this compound too: COCCOc1ccn2c(C(=O)Nc3c(Br)ccc4c3cnn4Cc3ccccc3)cnc2c1 [Example 134]
A. 1.0

Q. Cool, now O=C(Nc1cccc2c1cnn2Cc1ccccc1)c1cnc2cc(-c3cn[nH]c3)ccn12 [Example 145]
A. 1.0

Q. Also, Cc1nn(Cc2csc(C(C)C)n2)c2cccc(NC(=O)c3cnc4cc(OCCN5CCN(C)CC5)ccn34)c12 [Example 12] please.
A. 0.0

Q. Same question for CN1CCN(CCOc2ccn3c(C(=O)Nc4cccc5c4cnn5Cc4cccc(C(=O)N(C)C)c4)cnc3c2)CC1 [Example 97, dihydrochloride] please.
A. 1.0
